testedSystem: UniProtKB P10415
Sequence (P10415 whole entry): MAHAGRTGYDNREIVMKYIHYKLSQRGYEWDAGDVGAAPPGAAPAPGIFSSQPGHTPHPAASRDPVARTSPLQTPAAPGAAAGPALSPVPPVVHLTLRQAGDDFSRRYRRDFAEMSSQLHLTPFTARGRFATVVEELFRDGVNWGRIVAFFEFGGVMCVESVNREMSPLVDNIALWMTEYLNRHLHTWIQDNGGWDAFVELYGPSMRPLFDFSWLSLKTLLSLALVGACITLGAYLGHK
experimentSummary: Bcl-2 protein family binding assay (Bcl2scan platform), Bcl-2
conditionLabel: BIM peptide ligand, 11-point dilution, read-out: Bc1-2 Kd (nm)
pKd: −log10 of the molar value.
Recorded pKd by entry

>>> result("CC1(C)CCC(C23CC(C)(C2)C3)=C(CN2CCN(c3ccc(C(=O)NS(=O)(=O)c4ccc(N[C@H](CCN5CCC(O)CC5)CSc5ccccc5)c(S(=O)(=O)C(F)(F)F)c4)cc3)CC2)C1")
"7.00 to 8.00"
>>> result("CC1(C)CCC(CN2CCN(c3ccc(C(=O)NS(=O)(=O)c4ccc(OCC5(F)CCOCC5)c([N+](=O)[O-])c4)c(Oc4cnc5[nH]ccc5c4)c3)CC2)=C(C23CC(C(F)F)(C2)C3)C1")
"> 8.00"
>>> result("CC1(C)CCC(CN2CCN(c3ccc(C(=O)NS(=O)(=O)c4ccc(NC[C@H]5CC[C@](C)(O)CC5)c([N+](=O)[O-])c4)c(Oc4cnc5[nH]ccc5c4)c3)CC2)=C(C23CC(C(F)(F)F)(C2)C3)C1")
"> 8.00"

Inquiry: // pKd lookup, key: CC1(C)CCC(C23CC(C)(C2)C3)=C(CN2CCN(c3ccc(C(=O)NS(=O)(=O)c4ccc(N[C@H](CCN5CCOCC5)CSc5ccccc5)c(S(=O)(=O)C(F)(F)F)c4)cc3)CC2)C1
Reply text: < 7.00

Inquiry: // pKd lookup, key: CC1(C)CCC(CN2CCN(c3ccc(C(=O)NS(=O)(=O)c4ccc(NCC5(F)CCOCC5)c([N+](=O)[O-])c4)c(Oc4cnc5[nH]ccc5c4)c3)CC2)=C(C23CC(C(F)(F)F)(C2)C3)C1
Reply text: > 8.00

Inquiry: // pKd lookup, key: CC1(C)CCC(CN2CCN(c3ccc(C(=O)NS(=O)(=O)c4ccc(NCC5CCOCC5)c([N+](=O)[O-])c4)c(Oc4cnc5[nH]ccc5c4)c3)CC2)=C(C23CC(C)(C2)C3)C1
Reply text: > 8.00

Inquiry: // pKd lookup, key: CC1(C)CCC(CN2CCN(c3ccc(C(=O)NS(=O)(=O)c4ccc(NC[C@H]5CC[C@](C)(O)CC5)c([N+](=O)[O-])c4)c(Oc4cnc5[nH]ccc5c4)c3)CC2)=C(C23CC(C(F)F)(C2)C3)C1
Reply text: > 8.00

Inquiry: // pKd lookup, key: CC1(C)CCC(CN2CCN(c3ccc(C(=O)NS(=O)(=O)c4ccc(NCC5CCOCC5)c([N+](=O)[O-])c4)c(Oc4cnc5[nH]ccc5c4)c3)CC2)=C(C23CC(C(C)(F)F)(C2)C3)C1
Reply text: > 8.00

Inquiry: // pKd lookup, key: CC1(C)CCC(CN2CCN(c3ccc(C(=O)NS(=O)(=O)c4ccc(OCC5(F)CCOCC5)c([N+](=O)[O-])c4)c(Oc4cnc5[nH]ccc5c4)c3)CC2)=C(C23CC(C(F)(F)F)(C2)C3)C1
Reply text: > 8.00

====

System: RS4;11 cells
experimentSummary: RS4;11 cell proliferation assay (CellTiter-Glo)
Type: cell-based
conditionLabel: Homo sapiens, RS4-11, 48 h, read-out: RS4;11 (nM), CTG IC50
measuredParameter: IC50

In the examples that follow, each entry is paired with its recorded IC50.
>>> result("CN1CCC(F)(CNc2ccc(S(=O)(=O)NC(=O)c3ccc(N4CCN(CC5=C(C67CC(C(F)F)(C6)C7)CC(C)(C)CC5)CC4)cc3Oc3cnc4[nH]ccc4c3)cc2[N+](=O)[O-])CC1")
"< 100 nM"
>>> result("CC1(C)CCC(CN2CCN(c3ccc(C(=O)NS(=O)(=O)c4ccc(N[C@H](CCN5CCC(O)CC5)CSc5ccccc5)c(S(=O)(=O)C(F)(F)F)c4)cc3)CC2)=C(C23CC(C(F)F)(C2)C3)C1")
"< 100 nM"
>>> result("CC1(C)CCC(C23CC(C)(C2)C3)=C(CN2CCN(c3ccc(C(=O)NS(=O)(=O)c4ccc(N[C@H](CCN5CCOCC5)CSc5ccccc5)c(S(=O)(=O)C(F)(F)F)c4)cc3)CC2)C1")
"> 1000 nM"
>>> result("CN1CCO[C@@H](CNc2ccc(S(=O)(=O)NC(=O)c3ccc(N4CCN(CC5=C(C67CC(C)(C6)C7)CC(C)(C)CC5)CC4)cc3Oc3cnc4[nH]ccc4c3)cc2[N+](=O)[O-])C1")
"< 100 nM"
>>> result("CCC12CC(C3=C(CN4CCN(c5ccc(C(=O)NS(=O)(=O)c6ccc(NCC7CCOCC7)c([N+](=O)[O-])c6)c(Oc6cnc7[nH]ccc7c6)c5)CC4)CCC(C)(C)C3)(C1)C2")
"< 100 nM"
>>> result("CN(CCO)CC[C@H](CSc1ccccc1)Nc1ccc(S(=O)(=O)NC(=O)c2ccc(N3CCN(CC4=C(C56CC(C(F)F)(C5)C6)CC(C)(C)CC4)CC3)cc2)cc1S(=O)(=O)C(F)(F)F")
"< 100 nM"
>>> result("CCN(CCO)CC[C@H](CSc1ccccc1)Nc1ccc(S(=O)(=O)NC(=O)c2ccc(N3CCN(CC4=C(C56CC(C(F)F)(C5)C6)CC(C)(C)CC4)CC3)cc2)cc1S(=O)(=O)C(F)(F)F")
"100 to 1000 nM"
>>> result("CC(C)C12CC(C3=C(CN4CCN(c5ccc(C(=O)NS(=O)(=O)c6ccc(NCC7CCOCC7)c([N+](=O)[O-])c6)c(Oc6cnc7[nH]ccc7c6)c5)CC4)CCC(C)(C)C3)(C1)C2")
"< 100 nM"
>>> result("CC1(C)CCC(CN2CCN(c3ccc(C(=O)NS(=O)(=O)c4ccc(NC[C@H]5CC[C@](C)(O)CC5)c([N+](=O)[O-])c4)c(Oc4cnc5[nH]ccc5c4)c3)CC2)=C(C23CC(C(F)F)(C2)C3)C1")
"< 100 nM"
>>> result("CC1(C)CCC(CN2CCN(c3ccc(C(=O)NS(=O)(=O)c4ccc(NCC5CCOCC5)c([N+](=O)[O-])c4)c(Oc4cnc5[nH]ccc5c4)c3)CC2)=C(C23CC(Cl)(C2)C3)C1")
"< 100 nM"

Inquiry: // IC50 lookup, key: CN(C)CC[C@H](CSc1ccccc1)Nc1ccc(S(=O)(=O)NC(=O)c2ccc(N3CCN(CC4=C(C56CC(C)(C5)C6)CC(C)(C)CC4)CC3)cc2)cc1S(=O)(=O)C(F)(F)F
Reply text: 100 to 1000 nM

Inquiry: // IC50 lookup, key: O=C(NS(=O)(=O)c1ccc(N[C@H](CCN2CCC(O)CC2)CSc2ccccc2)c(S(=O)(=O)C(F)(F)F)c1)c1ccc(N2CCN(CC3=C(C45CC(C(F)F)(C4)C5)CC4(CCC4)CC3)CC2)cc1
Reply text: 100 to 1000 nM

Inquiry: // IC50 lookup, key: CC1(C)CCC(C23CC(Cl)(C2)C3)=C(CN2CCN(c3ccc(C(=O)NS(=O)(=O)c4ccc(N[C@H](CCN5CCC(O)CC5)CSc5ccccc5)c(S(=O)(=O)C(F)(F)F)c4)cc3)CC2)C1
Reply text: 100 to 1000 nM

Inquiry: // IC50 lookup, key: CC1(C)CCC(CN2CCN(c3ccc(C(=O)NS(=O)(=O)c4ccc(N[C@H](CCN5CCOCC5)CSc5ccccc5)c(S(=O)(=O)C(F)(F)F)c4)cc3)CC2)=C(C23CC(C(F)F)(C2)C3)C1
Reply text: 100 to 1000 nM

Inquiry: // IC50 lookup, key: CC1(C)CCC(CN2CCN(c3ccc(C(=O)NS(=O)(=O)c4ccc(N[C@H](CCN5CCOCC5)CSc5ccccc5)c([N+](=O)[O-])c4)cc3)CC2)=C(C23CC(C(F)F)(C2)C3)C1
Reply text: 100 to 1000 nM

Inquiry: // IC50 lookup, key: CC1(C)CCC(CN2CCN(c3ccc(C(=O)NS(=O)(=O)c4ccc(N[C@H](CCN5CCNCC5)CSc5ccccc5)c(S(=O)(=O)C(F)(F)F)c4)cc3)CC2)=C(C23CC(C(F)F)(C2)C3)C1
Reply text: 100 to 1000 nM

Inquiry: // IC50 lookup, key: CC1(C)CCC(CN2CCN(c3ccc(C(=O)NS(=O)(=O)c4ccc(NCC5CCOCC5)c([N+](=O)[O-])c4)c(Oc4cnc5[nH]ccc5c4)c3)CC2)=C(C23CC(C(F)(F)F)(C2)C3)C1
Reply text: < 100 nM

Inquiry: // IC50 lookup, key: CC1(C)CCC(CN2CCN(c3ccc(C(=O)NS(=O)(=O)c4ccc(NCC5(F)CCOCC5)c([N+](=O)[O-])c4)c(Oc4cnc5[nH]ccc5c4)c3)CC2)=C(C23CC(C(F)(F)F)(C2)C3)C1
Reply text: < 100 nM

Inquiry: // IC50 lookup, key: CCC12CC(C3=C(CN4CCN(c5ccc(C(=O)NS(=O)(=O)c6ccc(NC[C@H]7CC[C@](C)(O)CC7)c([N+](=O)[O-])c6)c(Oc6cnc7[nH]ccc7c6)c5)CC4)CCC(C)(C)C3)(C1)C2
Reply text: < 100 nM

Inquiry: // IC50 lookup, key: CC1(C)CCC(CN2CCN(c3ccc(C(=O)NS(=O)(=O)c4ccc(NCC5CCOCC5)c([N+](=O)[O-])c4)c(Oc4cnc5[nH]ccc5c4)c3)CC2)=C(C23CC(C(C)(F)F)(C2)C3)C1
Reply text: < 100 nM

Inquiry: // IC50 lookup, key: CC1(C)CCC(CN2CCN(c3ccc(C(=O)NS(=O)(=O)c4ccc(NCC5CCOCC5)c([N+](=O)[O-])c4)c(Oc4cnc5[nH]ccc5c4)c3)CC2)=C(C23CC(F)(C2)C3)C1
Reply text: < 100 nM
